Every entry's value here was drawn from the supplement of paper PMC10567573.

B1: ETS1 (parent)
chain: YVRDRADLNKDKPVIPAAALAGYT

# Variants of: B1
# TEST_DETAILS: protein stability index of a GFP-peptide fusion (GPS, HEK-293T) (PSI 1-6); higher = more stable;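 note: lentivirally expressed fusions sorted by FACS into six bins by GFP to DsRed ratio, PSI derived from sequencing read proportions per bin multiplied by bin number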
# TEST_CONDITIONS: c terminus: a fixed tail appended
Task for the reader: assign each of the following variants its reported protein stability index.
Answers are plain numbers.

As a guide, the following entries are already answered.
YVRIRADLNKDKPVIPAAALAGYT [D4I]    2.05
YVRDRADLNTDKPVIPAAALAGYT [K10T]    2.67
NVRDRADLNKDKPVIPAAALAGYT [Y1N]    4.3
YVRDRADLNKDKPVWPAAALAGYT [I15W]    2.77
YVRDRADLNKLKPVIPAAALAGYT [D11L]    4.14
YVRDRLDLNKDKPVIPAAALAGYT [A6L]    1.55
YVRDRADLNKDKPVIPAAALAGPT [Y23P]    1.47
YVRDRKDLNKDKPVIPAAALAGYT [A6K]    1.2
YVRDRADLNKSKPVIPAAALAGYT [D11S]    2.9
YVRDRADLNKDKPVIPAAALAGYV [T24V]    1.74

Would you be so kind as to report protein stability index for each listed record?
1. YVRDRADHNKDKPVIPAAALAGYT [L8H]
2. YVRDRADLNKDKPVIPAAALAGNT [Y23N]
3. YVRDRADLNKDKPVIPAAALGGYT [A21G]
4. YVRDRADLNKDIPVIPAAALAGYT [K12I]
5. YVRDRADLNHDKPVIPAAALAGYT [K10H]
6. YVRDRADLNNDKPVIPAAALAGYT [K10N]

1. 2.29
2. 2.34
3. 1.63
4. 2.19
5. 2.18
6. 2.08
